- targetUnderTest: Sphingosine kinase 2 (Mus musculus)
- assayNotes: Inhibition of mouse recombinant SphK2 assessed as remaining enzyme activity at 10 uM using gamma[32P]ATP incubated for 20 mins by liquid scintillation counting method
measurementLabel: Activity (%)

sampleSmiles | targetUnderTest | measurementLabel | unitsSymbol | value
N=C(N)N1CCC[C@H]1c1nc(-c2ccc(N3CCN(C(=O)Cc4ccccc4)CC3)cc2)no1 | Sphingosine kinase 2 (Mus musculus) | Activity | % | 86
N=C(N)N1CC[C@H]1c1nc(-c2ccc(N3CCOCC3)cc2)no1 | Sphingosine kinase 2 (Mus musculus) | Activity | % | 94
CC(C)CC(=O)N1CCN(c2ccc(-c3noc([C@@H]4CCCN4C(=N)N)n3)cc2)CC1 | Sphingosine kinase 2 (Mus musculus) | Activity | % | 90
CN1CCN(c2ccc(-c3noc([C@@H]4CCN4C(=N)N)n3)cc2)CC1 | Sphingosine kinase 2 (Mus musculus) | Activity | % | 90
CCCCCCCCCCCCc1noc([C@@H]2CCCN2C(=N)N)n1 | Sphingosine kinase 2 (Mus musculus) | Activity | % | 57
CCCCCCc1ccc(-c2noc([C@@H]3CCN3C(=N)N)n2)cc1 | Sphingosine kinase 2 (Mus musculus) | Activity | % | 45
CCCCCCCCCCc1ccc(-c2noc([C@@H]3CCN3C(=N)N)n2)cc1 | Sphingosine kinase 2 (Mus musculus) | Activity | % | 12
CCCCCCCCCCc1ccc(-c2noc([C@@H]3CCCN3C(=N)N)n2)cc1 | Sphingosine kinase 2 (Mus musculus) | Activity | % | 9
CCCCCCCCCCCCCCc1ccc(-c2noc([C@@H]3CCCN3C(=N)N)n2)cc1 | Sphingosine kinase 2 (Mus musculus) | Activity | % | 16
N=C(N)N1CCC[C@H]1c1nc(-c2ccc(CCc3ccccc3)cc2)no1 | Sphingosine kinase 2 (Mus musculus) | Activity | % | 70
CCCCCCCCCCCCCCCCc1noc([C@@H]2CCCN2C(=N)N)n1 | Sphingosine kinase 2 (Mus musculus) | Activity | % | 52
CCCCCCCCc1ccc(-c2noc([C@@H]3CCCN3C(=N)N)n2)cc1 | Sphingosine kinase 2 (Mus musculus) | Activity | % | 9
N=C(N)N1CCC[C@H]1c1nc(-c2ccc(N3CCN(Cc4ccccc4)CC3)cc2)no1 | Sphingosine kinase 2 (Mus musculus) | Activity | % | 89
N=C(N)N1CCC[C@H]1c1nc(-c2ccc(I)cc2)no1 | Sphingosine kinase 2 (Mus musculus) | Activity | % | 63
CCCCCCCCc1noc([C@@H]2CCCN2C(=N)N)n1 | Sphingosine kinase 2 (Mus musculus) | Activity | % | 88
CCCCCCc1ccc(-c2noc([C@@H]3CCCN3C(=N)N)n2)cc1 | Sphingosine kinase 2 (Mus musculus) | Activity | % | 35
N=C(N)N1CCC[C@H]1c1nc(-c2ccc(N3CCN(C(=O)C45CC6CC(CC(C6)C4)C5)CC3)cc2)no1 | Sphingosine kinase 2 (Mus musculus) | Activity | % | 87
N=C(N)N1CCC[C@H]1c1nc(-c2ccc(CS(=O)(=O)c3ccccc3)cc2)no1 | Sphingosine kinase 2 (Mus musculus) | Activity | % | 88
CCOCc1cc(C)cc(Cc2ccc(-c3noc([C@@H]4CCCN4C(=N)N)n3)cc2)c1 | Sphingosine kinase 2 (Mus musculus) | Activity | % | 46
N=C(N)N1CC[C@H]1c1nc(-c2ccc(-c3ccccc3)cc2)no1 | Sphingosine kinase 2 (Mus musculus) | Activity | % | 91
CCCCCCCCCCCCc1ccc(-c2noc([C@@H]3CCCN3C(=N)N)n2)cc1 | Sphingosine kinase 2 (Mus musculus) | Activity | % | 15
